# System: NCI-H23 lung
# ASSAY COMMENT: NCI tumour cell line growth inhibition, 48 h
Exercise: state measured GI50 for each of the compounds provided.

Qu. Using known records, supply GI50 for Cn1cccc1-c1cc(-c2ccccc2)nc(N)c1C#N
Ans. > 100 µM

Qu. Using known records, supply GI50 for CCSc1nc(N)c2cnn(CC)c2n1
Ans. 10.3 µM

Qu. Using known records, supply GI50 for CC(=O)[O][Hg][c]1s[c]([Hg][O]C(C)=O)[c]([Hg][O]C(C)=O)[c]1[Hg][O]C(C)=O
Ans. 19.7 µM

====

# Tested on: RXF 393 renal
# ASSAY COMMENT: NCI tumour cell line growth inhibition, 48 h
OBSERVED PROPERTY: TGI

Qu. Report TGI on RXF 393 renal for this entry: O=NNc1c[nH]c(=O)[nH]c1=O
Ans. > 100 µM

Qu. Report TGI on RXF 393 renal for this entry: CC1OC(=O)N2CCC=CC12 (stereo not drawn)
Ans. > 100 µM

Qu. Report TGI on RXF 393 renal for this entry: CC(CC(=O)Nc1ccc(NC(=O)CC(C)N=NC(N)=O)cc1)N=NC(N)=O (stereo not drawn)
Ans. > 100 µM

Qu. Report TGI on RXF 393 renal for this entry: CSc1nc(-c2ccccc2)nc(=[N+]2CCOCC2)s1
Ans. > 100 µM

Qu. Report TGI on RXF 393 renal for this entry: Cn1cccc1-c1cc(-c2ccccc2)nc(N)c1C#N
Ans. > 100 µM

Qu. Report TGI on RXF 393 renal for this entry: COC(=O)C(CNC(=O)/C=C/c1ccc(OC(C)=O)c(OC(C)=O)c1)NC(=O)/C=C/c1ccc(OC(C)=O)c(OC(C)=O)c1 (stereo not drawn)
Ans. > 100 µM

Qu. Report TGI on RXF 393 renal for this entry: CC(C)N1[C@@H]2CCCC[C@H]2N(C(C)C)[P+]1=O
Ans. > 100 µM

Qu. Report TGI on RXF 393 renal for this entry: O=C1CC2OCC=C3CN4CCC5(C(=O)O)C(N1)C2C3CC45 (stereo not drawn)
Ans. > 100 µM
